The reported measurements were obtained from patent US11566007B2.

target entity: NRAS Q61R (Homo sapiens (Human), UniProt P01111+P62937, Q61R)
Sequence (P01111 whole entry Q61R): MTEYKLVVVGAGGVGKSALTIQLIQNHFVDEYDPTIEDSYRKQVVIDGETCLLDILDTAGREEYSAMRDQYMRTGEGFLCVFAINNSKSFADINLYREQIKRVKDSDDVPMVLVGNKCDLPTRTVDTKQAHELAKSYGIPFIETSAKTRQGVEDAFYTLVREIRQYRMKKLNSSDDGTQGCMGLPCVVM
Sequence (P62937 whole entry): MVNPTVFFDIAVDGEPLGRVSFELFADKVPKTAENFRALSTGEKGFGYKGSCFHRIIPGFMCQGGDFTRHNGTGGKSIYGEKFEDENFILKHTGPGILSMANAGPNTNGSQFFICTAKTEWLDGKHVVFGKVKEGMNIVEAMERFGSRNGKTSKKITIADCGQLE
procedure summary: Ras-Raf (BRAF RBD) disruption / FRET / MOA assay, NRAS Q61R
Assay type: biochemical
condition parameters: NRAS Q61R; Ras-Raf disruption/FRET/MOA assay; read-out: IC50* NRAS Q61R FRET data
pIC50: −log10 of the molar value.
endpoint name: pIC50

These recorded examples may help you get a feel for the data.
query: Could you share which pIC50 value was measured for C=CC(=O)N(C)CCC1CCN(C(=O)N(C)[C@H](C(=O)N[C@H]2Cc3nc(cs3)-c3ccc4c(c3)c(c(-c3cccnc3[C@H](C)OC)n4CC)CC(C)(C)COC(=O)[C@@H]3CCCN(N3)C2=O)C(C)C)CC1 (atropisomer, axis not shown) ?
result: 7.00 to 8.00

query: Could you share which pIC50 value was measured for C=CC(=O)N1CCO[C@H]2CCN(C(=O)N(C)[C@H](C(=O)N[C@H]3Cc4nc(cs4)-c4ccc5c(c4)c(c(-c4cccnc4[C@H](C)OC)n5CC)CC(C)(C)COC(=O)[C@@H]4CCCN(N4)C3=O)C(C)C)C[C@@H]21 (atropisomer, axis not shown) ?
result: 7.00 to 8.00

query: Could you share which pIC50 value was measured for C=CC(=O)N1CC[C@H](C(=O)N(C)[C@H](C(=O)N[C@H]2Cc3cccc(c3)-c3ccc4c(c3)c(c(-c3cccnc3[C@H](C)OC)n4CC)CC(C)(C)COC(=O)[C@@H]3CCCN(N3)C2=O)C(C)C(F)(F)F)C1 (stereo partly shown) ?
result: 5.00 to 6.00

Now for a further compound.
query: Could you share which pIC50 value was measured for C=CC(=O)N1CC[C@H](C(=O)N(C)[C@H](C(=O)N[C@H]2Cc3nc(ns3)-c3ccc4c(c3)c(c(-c3cccnc3[C@H](C)OC)n4CC)CC(C)(C)COC(=O)[C@@H]3CCCN(N3)C2=O)C(C)C)C1 (atropisomer, axis not shown) ?
result: < 5.00
